Sourced from patent US8383637B2

Parameter inhibition at 3 µM: see the listing below.
molecular target: β-secretase(BACE) (Homo sapiens); construct: purchased Panvera; test: BACE FS1% Inhibition Assay; format: biochemical; conditions: 3 μM test compound; FS1 substrate; read-out: % Inhibition (FS) 3 μM
Give the number; % is assumed, so skip it.

Example entries and their recorded answers appear below.
What does the data say about its inhibition at 3 µM? Entry: `CC(C)CN(CC(C)C)C(=O)c1cccc(CN2Cc3cc(Oc4ccccc4)ccc3N=C2N)c1`
68

What does the data say about its inhibition at 3 µM? Entry: CCCC(CCCC(=O)N(C)C1CCCCC1)N1Cc2cc(Oc3ccccc3)ccc2N=C1N (centres unmarked)
106

What does the data say about its inhibition at 3 µM? Entry: `NC1=Nc2ccc(-c3ccccc3F)cc2CN1CCNC(=O)C1CCCCC1`
116

What does the data say about its inhibition at 3 µM? Entry: `CN(C(=O)c1cccc(CN2Cc3cc(-c4ccccc4Cl)ccc3N=C2N)c1)C1CCCCC1`
112

What does the data say about its inhibition at 3 µM? Entry: `NC1=Nc2ccc(Oc3ccccc3)cc2CN1CCNC(=O)C1(c2ccc(Cl)cc2)CCCC1`
120

Continuing:
What does the data say about its inhibition at 3 µM? Entry: `COc1ccc(NC(=O)C(C)(C)C)c(-c2ccc3c(c2)CN(Cc2cccc(C(=O)N(C)C4CCCCC4)c2)C(N)=N3)c1`
102

What does the data say about its inhibition at 3 µM? Entry: `NC1=Nc2ccc(Oc3ccccc3)cc2CN1C1CCN(C(=O)C2CCCCC2)CC1`
79

What does the data say about its inhibition at 3 µM? Entry: `NC1=Nc2ccc(Oc3ccccc3)cc2CN1[C@@H](CNC(=O)C1CCCCC1)C1CCCCC1`
123

----------
Parameter inhibition at 1 µM: see the listing below.
target: β-secretase(BACE) (Homo sapiens); construct: purchased Panvera; assay: BACE FS1% Inhibition Assay; format: biochemical; details: 1 μM test compound; FS1 substrate; read-out: % Inhibition (FS) 1 μM
Give the number; % is assumed, so skip it.

Example entries and their recorded answers appear below.
What does the data say about its inhibition at 1 µM? Entry: `Cc1noc(C)c1-c1ccc2c(c1)CN(Cc1cccc(C(=O)N(C)C3CCCCC3)c1)C(N)=N2`
65

What does the data say about its inhibition at 1 µM? Entry: CN(C(=O)c1cccc(C(C2CCCCC2)N2Cc3cc(Oc4ccccc4)ccc3N=C2N)c1)C1CCCCC1 (centres unmarked)
103

Continuing:
What does the data say about its inhibition at 1 µM? Entry: `CN(C(=O)c1cccc(CN2Cc3cc(-c4ccccc4CO)ccc3N=C2N)c1)C1CCCCC1`
106

----------
Parameter inhibition at 0.3 µM: see the listing below.
target: β-secretase(BACE) (Homo sapiens, UniProt P56817); construct: purchased Panvera; test: BACE FS1% Inhibition Assay; format: biochemical; settings: 0.3 μM test compound; FS1 substrate; read-out: % Inhibition (FS) 0.3 μM
Sequence (P56817 46-501): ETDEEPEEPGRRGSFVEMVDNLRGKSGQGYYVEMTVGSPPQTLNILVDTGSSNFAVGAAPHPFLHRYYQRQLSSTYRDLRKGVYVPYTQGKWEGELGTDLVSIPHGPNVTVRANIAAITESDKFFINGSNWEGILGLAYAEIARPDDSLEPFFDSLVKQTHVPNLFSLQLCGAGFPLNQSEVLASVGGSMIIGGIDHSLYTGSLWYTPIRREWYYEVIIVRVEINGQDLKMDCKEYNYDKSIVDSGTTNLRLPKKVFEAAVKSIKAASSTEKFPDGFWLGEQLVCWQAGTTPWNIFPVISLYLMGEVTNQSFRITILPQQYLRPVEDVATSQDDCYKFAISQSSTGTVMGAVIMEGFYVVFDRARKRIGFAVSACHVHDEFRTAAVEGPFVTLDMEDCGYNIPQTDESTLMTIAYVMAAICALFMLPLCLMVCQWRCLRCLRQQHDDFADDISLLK
Give the number; % is assumed, so skip it.

What does the data say about its inhibition at 0.3 µM? Entry: `NC1=Nc2ccc(Oc3ccccc3)cc2CN1CCC(=O)NC1CCCCC1`
50

Now, please, on to the next compound.
What does the data say about its inhibition at 0.3 µM? Entry: `CC(C)OC(=O)NCCN1Cc2cc(Oc3ccccc3)ccc2N=C1N`
103

----------
target: β-secretase(BACE) (Homo sapiens); construct: purchased Panvera; assay: BACE FS1% Inhibition Assay; format: biochemical; conditions: 1 μM test compound; FS1 substrate
assay-endpoint: % Inhibition (FS) 1 μM

Example entries and their recorded answers appear below.
Item: NC1=Nc2ccc(-c3ccc(Cl)cc3)cc2CN1CCNC(=O)C1CCCCC1 [Compound 626] Test system: β-secretase(BACE) (Homo sapiens) Read-out: % Inhibition (FS) 1 μM Value: ?
<30%

Item: CN(C(=O)c1cccc(CN2Cc3cc(Oc4ccccc4-n4cccc4)ccc3N=C2N)c1)C1CCCCC1 [Compound 471] Test system: β-secretase(BACE) (Homo sapiens) Read-out: % Inhibition (FS) 1 μM Value: ?
<30%

Item: CN(C(=O)c1cccc(CN2Cc3cc(-c4ccc(C5CCCCC5)cc4)ccc3N=C2N)c1)C1CCCCC1 [Compound 267] Test system: β-secretase(BACE) (Homo sapiens) Read-out: % Inhibition (FS) 1 μM Value: ?
39%

Continuing:
Item: NC(=O)c1ccccc1-c1ccc2c(c1)CN(CCNC(=O)C1CCCCC1)C(N)=N2 [Compound 543] Test system: β-secretase(BACE) (Homo sapiens) Read-out: % Inhibition (FS) 1 μM Value: ?
<30%
